Reference source for all entries: PubChem BioAssay (EPA / NIEHS)

experiment: CCTE_Shafer_MEA_dev_correlation_coefficient_mean: CCTE's Neural Network Formation Assay for Mean Correlation Coefficient, Shafer Lab (AID 2284093)
Calls of active or inactive are those of the source. The calls were made as follows: active = hit-call score of the fitted dose curve at least 0.9, where 1 is the maximum; inactive = score below 0.9.
Your response should consist of one outcome taken from label 1 = active, label 0 = inactive

Some solved cases for reference:
Assay result, entry "CNS(=O)(=O)C(F)(F)C(F)(F)C(F)(F)C(F)(F)C(F)(F)C(F)(F)C(F)(F)C(F)(F)F" — outcome?
label 0

Tell me the recorded outcome of this test for "OCC(F)(F)C(F)(F)C(F)(F)C(F)(F)C(F)(F)C(F)(F)C(F)(F)C(F)(F)CO" .
label 1

Continuing:
Any idea what this test logged for "C=CC(=O)OCCC(F)(F)C(F)(F)C(F)(F)C(F)(F)F" ?
label 1

Hi team, can someone confirm the assay call for "CO[Si](C)(CCC(F)(F)C(F)(F)C(F)(F)C(F)(F)C(F)(F)C(F)(F)F)OC" ?
label 0

Would you mind telling me which call this test gave "OC(O)C(F)(F)C(F)(F)F" ?
label 0

# fetch the recorded call for "NC(=O)C(F)(F)C(F)(F)C(F)(F)C(F)(F)C(N)=O" here
label 0

----------
target: Cellular tumor antigen p53 (Homo sapiens); test: ATG_p53_CIS: Attagene CIS-FACTORIAL HepG2 Assay for human p53 Transcription Factor (AID 2282994); details: HepG2 p53 cis-element reporter, Attagene mRNA; actives raise or lower the signal
Active and inactive are the calls of the source. The calls were made as follows: active = hit-call score of the fitted dose curve at least 0.9, where 1 is the maximum; inactive = score below 0.9.
Output constraint: value belongs to active, inactive

These solved cases illustrate the format of a correct answer.
How did this test come out for OCC1CCCO1 (centres undefined) ?
inactive

How did this test come out for "CCN(CC)c1ccc(C=O)c(O)c1" ?
active

Could you check what this test reported for CC(O)C#CC(C)O (centres undefined) ?
active

Dear colleague, could you share the recorded outcome for "OCC(F)(F)C(F)(F)C(F)(F)C(F)(F)C(F)(F)C(F)(F)C(F)(F)C(F)(F)CO" when you have a moment?
inactive

Can you look up the reported call for "O=C(O)C(F)(F)OC(F)(F)C(F)(F)OC(F)(F)C(F)(F)OC(F)(F)F" for me?
inactive

Answer briefly: the call reported for "NC(=O)C(F)(F)C(F)(F)C(F)(F)C(F)(F)C(N)=O" in this assay.
inactive

I'd appreciate the recorded outcome for "C=CC(=O)OCCC(F)(F)C(F)(F)C(F)(F)C(F)(F)F" from this test.
inactive

# lookup: test call for "Brc1nc2ccccc2s1"
inactive

More entries:
# outcome recorded in this test, key = "O=C(O)C(F)(F)C(F)(F)C(F)(F)C(=O)O"
inactive

What classification did "CCCCCCCCn1sc(Cl)c(Cl)c1=O" end up with in this test?
active

Call for entry CCCCCCCC/C=C\CCCCCCCC(=O)OCC(O)CO (centres undefined) :
inactive

GET /call?item= "O=C(F)C1(F)C(F)(F)C(F)(F)C(F)(F)C(F)(F)C1(F)F" returns the recorded outcome of this test.
inactive

Which outcome did this test record for the compound "CCCCCCCCCCCCCCCCC" ?
inactive

----------
read-out: Vascular cell adhesion molecule 1 (VCAM1), VCAM1 (gene 7412); assay: BSK_CASM3C_VCAM1: BioMAP Diversity Plus: CASM3C Assay for Vascular cell adhesion molecule 1 (VCAM1) Biomarker Activity (AID 2283055); settings: primary human coronary artery smooth muscle cells; actives raise or lower the signal;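 also: VCAM-1 protein level quantified by ELISA on the cells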
Calls of active or inactive are those of the source. Rule for the calls: active = hit-call score of the fitted dose curve at least 0.9, where 1 is the maximum; inactive = score below 0.9.
Valid outcomes are listed here; reply with one: y for active, n for inactive

Study these solved cases before continuing.
Test call for this molecule, please: "O=C1C=CC(=O)N1c1ccc(Cc2ccc(N3C(=O)C=CC3=O)cc2)cc1"
y

How was "CCN(CC)c1ccc(C=O)cc1" classified in this test?
n

Recorded test call requested for "FC(F)(F)C(F)(F)C(F)(F)C(F)(F)C(F)(F)C(F)(F)C(F)(F)CCI"
n

Others:
Just curious, what result did "O=C(O)C(F)(F)C(F)(F)C(F)(F)C(F)(F)C(F)(F)C(F)(F)C(F)F" get here?
n

Status in this test for "CCOC(=O)CC(=O)C(F)(F)C(F)(F)F" ?
n

What is the recorded call for this molecule in the test? "Cc1cnccn1"
n

Short answer needed: outcome of this test for "O=C(Cl)C(F)(F)C(F)(F)C(F)(F)C(F)(F)C(F)(F)C(F)(F)C(F)(F)F" ?
n

Tell me the recorded outcome of this test for "NC(=O)C(F)(F)C(F)(F)C(F)(F)F" .
n

What outcome does the record of this test show for "CN(C(=O)C(F)(F)C(F)(F)C(F)(F)F)[Si](C)(C)C" ?
n

Each molecule tested received a call. Report the one for "Nc1cc([N+](=O)[O-])cc(Cl)c1O" .
n

Field: outcome | Entry: "NCC(F)(F)C(F)(F)C(F)(F)C(F)(F)C(F)(F)C(F)(F)C(F)(F)C(F)(F)F"
n

Given "O=C(c1ccccc1)c1ccc(O)cc1O" , state the outcome it received in this test.
n

Would you mind telling me which call this test gave "OC(O)C(F)(F)C(F)(F)F" ?
n

Hello, I am checking results. What call was entered for "CCN(CC)c1ccc(N=Nc2ccccc2)cc1" ?
y

Hey, what did the test say about "C[C@]12CC[C@H]3C(=CCc4cc(O)ccc43)[C@@H]1CCC2=O" ?
n

# outcome recorded in this test, key = "O=C(O)C(F)(F)OC(F)(F)C(F)(F)OC(F)(F)C(F)(F)OC(F)(F)F"
n

Hi, do you know how CC1=CC2C3C=CC(C3)C2C1C (centres undefined) came out in this test?
n

Could you kindly confirm the outcome this assay logged for COC(F)(C(F)F)C(F)(F)F (centres undefined) ?
n

# lookup: test call for "O=S(=O)(O)CCC(F)(F)C(F)(F)C(F)(F)C(F)(F)C(F)(F)C(F)(F)C(F)(F)C(F)(F)F"
n
